Target: HLA-A*02:06
Assay: IEDB peptide-MHC binding, purified MHC/competitive/radioactivity; filed as Kd, often an IC50 or EC50 that approximates it; bounds were set here for any values at or beyond the usual limits of such assays
Details: source organism: Vaccinia virus WR
property.measured: pKd
Please note pKd is a logarithmic value: minus log10 of concentration in mol/L. Answer with that number alone.

> print(dat)
   residue.sequence  measured.number
1         GLSASDVDM             4.86
2        PTNDIPSLFI             4.83
3         GAAITLVVI             5.53
4        ALYSPPLISI             6.79

Task: Lab note: need pKd with HLA-A*02:06 for entry `GTKGKLYIA` , please look it up.
Result: 5.60

Task: Kindly state the measured pKd obtained for `FIVYGRSNA` with HLA-A*02:06.
Result: 5.06

Task: Which pKd is reported with HLA-A*02:06 for this entry: `GARVIWMDA` ?
Result: 5.67

Task: Quick check: pKd on HLA-A*02:06, item `IAIFNNRNL` ?
Result: 4.87

Task: Identify the measured pKd of `NMLDDFSAGA` for HLA-A*02:06.
Result: 6.62

Task: Query pKd on HLA-A*02:06 for `TILATLNTL`
Result: 7.59

Task: Missing value: pKd, HLA-A*02:06, entry `DLLFNEKLKV` . Fill in?
Result: 5.69

Task: Field: pKd (HLA-A*02:06). Entry: `MIIGEPIIVA`
Result: 6.91

Task: Look up pKd with HLA-A*02:06 for this sequence: `CVDHPFIYV`
Result: 6.83

====

Form field: Kd (one value per entry).
Molecular target: HLA-A*33:01
Experiment: IEDB peptide-MHC binding, purified MHC/competitive/radioactivity; filed as Kd, often an IC50 or EC50 that approximates it; bounds were set here for any values at or beyond the usual limits of such assays
Settings: source organism: Vaccinia virus WR

Task: Please report the recorded Kd for `IILAALFMYY` .
Result: ≥ 70 µM

====

Target: HLA-A*68:01
Assay: IEDB peptide-MHC binding, purified MHC/competitive/radioactivity; filed as Kd, often an IC50 or EC50 that approximates it; bounds were set here for any values at or beyond the usual limits of such assays
Conditions: source organism: Vaccinia virus WR
property.measured: Kd

> print(dat)
   residue.sequence     result
1         RQILDNAAK  ≥ 35.3 µM

Task: Field request: Kd | item: `KSKQDRSDGY`
Result: ≥ 70.2 µM

Task: So what does the record say about Kd for `KVKTELVMDK` ?
Result: ≥ 48.6 µM

====

Entries and their measured Kd follow.
Target: HLA-A*03:01
Test: IEDB peptide-MHC binding, purified MHC/competitive/radioactivity; filed as Kd, often an IC50 or EC50 that approximates it; bounds were set here for any values at or beyond the usual limits of such assays
Settings: source organism: Vaccinia virus WR

# example entries with known answers
> print(dat)
   residue.sequence     result
1         VTLFYCDER  ≥ 43.2 µM
2        ETSPGEIKPK    ≥ 35 µM

Now look at this one.
Task: Request: Kd, test system HLA-A*03:01, entry `NAISSRVDR`
Result: ≥ 78 µM

Every entry's value here was drawn from the Immune Epitope Database (IEDB).
